Reported Ki against Carbonic anhydrase 1 (Homo sapiens, UniProt P00915), gathered from multiple publications, appears below.

Guide cases for Ki, answers given:
{"INPUT_SMILES": "O=C(S)NCCc1ccccc1", "Ki": "> 2 µM"}
{"INPUT_SMILES": "NS(=O)(=O)c1ccc(NC(=O)N2CCN(c3ccc(Cl)cc3)CC2)cc1", "Ki": "> 10 µM"}
{"INPUT_SMILES": "CN(CC(=O)/N=c1/sc(S(N)(=O)=O)nn1C)C(=N)N", "Ki": "0.19 µM"}
{"INPUT_SMILES": "CCn1cc(S(N)(=O)=O)c2cc(NC(=O)c3cc(-c4ccc(Cl)cc4)nc4ccccc34)ccc21", "Ki": "> 100 µM"}

# compound "COc1c(C(C)=O)c(=O)oc2ccc(Br)cc12" ; its Ki = > 10 µM
